The origin of these recorded values is patent US12258328B2.

IC50 overview
Target: EGFR L858R/C797S (Homo sapiens, UniProt P00533, C797S/L858R)
Sequence (P00533 25-1210 C797S/L858R): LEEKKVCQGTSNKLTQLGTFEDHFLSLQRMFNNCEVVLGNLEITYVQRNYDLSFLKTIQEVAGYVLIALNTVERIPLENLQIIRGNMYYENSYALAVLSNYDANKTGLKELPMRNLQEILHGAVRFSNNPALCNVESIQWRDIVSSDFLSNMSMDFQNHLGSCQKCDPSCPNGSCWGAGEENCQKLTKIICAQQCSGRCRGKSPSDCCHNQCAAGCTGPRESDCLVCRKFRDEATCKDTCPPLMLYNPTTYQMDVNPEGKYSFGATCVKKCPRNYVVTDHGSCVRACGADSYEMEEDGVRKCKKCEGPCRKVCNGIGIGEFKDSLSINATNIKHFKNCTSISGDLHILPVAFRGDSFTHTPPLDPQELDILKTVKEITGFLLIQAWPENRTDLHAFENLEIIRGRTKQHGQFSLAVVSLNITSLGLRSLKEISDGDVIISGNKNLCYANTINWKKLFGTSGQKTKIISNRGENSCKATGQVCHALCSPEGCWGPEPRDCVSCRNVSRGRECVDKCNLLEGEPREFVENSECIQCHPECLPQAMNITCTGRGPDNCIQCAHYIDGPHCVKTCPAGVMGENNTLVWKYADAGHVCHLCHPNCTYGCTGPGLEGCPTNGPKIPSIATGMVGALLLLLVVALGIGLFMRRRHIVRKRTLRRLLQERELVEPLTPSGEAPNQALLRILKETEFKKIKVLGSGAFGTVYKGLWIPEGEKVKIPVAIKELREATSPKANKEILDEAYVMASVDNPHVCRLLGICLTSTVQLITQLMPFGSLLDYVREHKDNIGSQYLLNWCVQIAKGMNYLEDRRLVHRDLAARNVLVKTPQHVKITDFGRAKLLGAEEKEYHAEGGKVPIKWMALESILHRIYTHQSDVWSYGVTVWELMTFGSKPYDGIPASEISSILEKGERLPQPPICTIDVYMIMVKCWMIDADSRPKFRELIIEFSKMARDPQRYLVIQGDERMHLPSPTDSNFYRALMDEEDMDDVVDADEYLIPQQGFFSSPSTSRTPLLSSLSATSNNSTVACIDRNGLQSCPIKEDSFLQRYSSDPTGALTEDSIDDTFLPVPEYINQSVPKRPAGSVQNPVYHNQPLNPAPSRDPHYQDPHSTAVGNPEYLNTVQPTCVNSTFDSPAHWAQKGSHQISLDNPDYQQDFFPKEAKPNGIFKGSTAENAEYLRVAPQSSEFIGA
Test: Biochemical EGFR kinase assay (Lance Ultra TR-FRET), double mutant L858R/C797S
Settings: Km ATP; read-out: IC50 L858R/C797S (nM) Km ATP
# value in nM; strip the unit string

Fill in the blank: the reported IC50 of FC(F)Cn1cc(-c2nccc(Nc3cc(N[C@H]4CC[C@@H](F)CC4)c(-c4ccc(N5CCOCC5)cn4)cn3)n2)cn1 is ____.
6.4

IC50 lookup needed for C[C@]1(O)CC[C@@H](Nc2cc(Nc3ccnc(-c4cnn(S(=O)(=O)C5CC5)c4)n3)ncc2-c2ccc(CN3CCOCC3)cn2)CC1 , thanks.
0.1

Requested field: IC50. Item: C[C@]1(O)CC[C@@H](Nc2cc(Nc3ccnc(-c4cnn(S(=O)(=O)C5CC5)c4)n3)ncc2-c2ccc(N3CCOCC3)cn2)CC1
0.9

# IC50 lookup, item CN(C)c1ccc(-c2cnc(Nc3ccnc(-c4cnn(S(=O)(=O)C5CC5)c4)n3)cc2N[C@H]2CC[C@@](C)(O)CC2)nc1
1.7

Recorded IC50 of CN1CCC(Oc2cnc(-c3cnc(Nc4ccnc(-c5cnn(S(=O)(=O)C6CC6)c5)n4)cc3N[C@H]3CC[C@@H](CO)CC3)cn2)CC1 , please.
0.1

So what does the record say about IC50 for C[C@]1(O)CC[C@@H](Nc2cc(Nc3ccnc(-c4cnn(S(=O)(=O)C5CC5)c4)n3)ncc2-c2ncccc2OCC(F)(F)F)CC1 ?
795

====

Molecular target: EGFR wildtype (Homo sapiens, UniProt P00533)
Sequence (P00533 25-1210): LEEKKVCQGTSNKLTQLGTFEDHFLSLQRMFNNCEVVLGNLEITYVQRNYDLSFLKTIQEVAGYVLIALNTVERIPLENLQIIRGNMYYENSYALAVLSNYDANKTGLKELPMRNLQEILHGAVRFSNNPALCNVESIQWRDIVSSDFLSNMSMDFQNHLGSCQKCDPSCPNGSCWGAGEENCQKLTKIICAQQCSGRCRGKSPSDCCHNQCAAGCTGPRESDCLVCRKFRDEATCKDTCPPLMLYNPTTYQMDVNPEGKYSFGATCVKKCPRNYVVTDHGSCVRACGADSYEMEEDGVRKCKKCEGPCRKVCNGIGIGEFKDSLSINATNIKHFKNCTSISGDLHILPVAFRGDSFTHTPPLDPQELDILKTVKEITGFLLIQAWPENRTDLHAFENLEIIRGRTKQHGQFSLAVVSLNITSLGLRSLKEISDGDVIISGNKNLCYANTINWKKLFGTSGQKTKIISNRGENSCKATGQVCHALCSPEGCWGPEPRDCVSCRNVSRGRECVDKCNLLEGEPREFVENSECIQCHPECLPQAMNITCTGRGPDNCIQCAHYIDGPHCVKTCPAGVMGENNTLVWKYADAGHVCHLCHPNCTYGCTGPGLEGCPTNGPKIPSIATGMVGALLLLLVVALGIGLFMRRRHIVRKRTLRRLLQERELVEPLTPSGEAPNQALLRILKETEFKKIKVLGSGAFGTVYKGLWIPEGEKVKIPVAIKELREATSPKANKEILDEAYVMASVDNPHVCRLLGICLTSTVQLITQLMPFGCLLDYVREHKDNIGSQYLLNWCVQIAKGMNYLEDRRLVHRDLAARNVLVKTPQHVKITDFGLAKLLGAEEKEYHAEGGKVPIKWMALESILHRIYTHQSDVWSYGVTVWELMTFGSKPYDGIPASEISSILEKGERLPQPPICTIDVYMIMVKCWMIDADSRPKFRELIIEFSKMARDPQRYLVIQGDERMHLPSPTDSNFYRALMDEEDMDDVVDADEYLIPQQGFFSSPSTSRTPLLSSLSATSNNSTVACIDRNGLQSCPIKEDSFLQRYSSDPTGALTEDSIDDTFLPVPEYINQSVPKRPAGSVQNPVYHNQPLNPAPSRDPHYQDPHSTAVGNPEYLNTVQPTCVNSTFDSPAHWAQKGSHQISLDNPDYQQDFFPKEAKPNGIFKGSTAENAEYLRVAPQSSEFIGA
Assay: Biochemical EGFR kinase assay (Lance Ultra TR-FRET), wildtype
Conditions: IC50 WT, 100 μM ATP
Description: Biochemical EGFR kinase assays were conducted using Lance Ultra time-resolved fluorescence resonance energy transfer (TR-FRET) technology from Perkin-Elmer. […] Each kinase reactions were incubated at room temperature for 1 hour and then stopped by the addition of 4 μL of stop solution (10 mM EDTA). […] After 60 minutes incubation at room temperature the LANCE signal was measured on an EnVision Multilabel Reader (Perkin-Elmer). […]
In this section, each of the compounds is paired with its reported log10(IC50).
// do not treat as linear: log10 of IC50, unit nM

Below are worked cases with known answers.
CN(C)C(=O)[C@H]1CC[C@@H](Nc2cc(Nc3ccnc(-c4cnn(S(=O)(=O)C5CC5)c4)n3)ncc2-c2ccc(C(C)(C)O)cn2)CC1 [Example 172]	1.97
CS(=O)(=O)c1ccc(-c2cnc(Nc3ccnc(-c4cnn(S(=O)(=O)C5CC5)c4)n3)cc2N[C@H]2CC[C@@H](NCCF)CC2)nc1 [Example 157]	3.47
CN1CCN(C(=O)c2ccc(-c3cnc(Nc4ccnc(-c5cnn(S(=O)(=O)C6CC6)c5)n4)cc3N[C@H]3CC[C@@H](CO)CC3)nc2)CC1 [Example 202]	1.97
O=S(=O)(C1CC1)n1cc(-c2nccc(Nc3cc(N[C@H]4CC[C@@H](CO)CC4)c(-c4ccc(CC(F)(F)F)cn4)cn3)n2)cn1 [Example 219]	3.43
CC(C)(O)C1CCC(Nc2cc(Nc3ccnc(-c4cnn(S(=O)(=O)C5CC5)c4)n3)ncc2-c2ccc(C(O)C(F)(F)F)cn2)CC1 (stereo not drawn) [Example 229]	3.98
O=S(=O)(C1CC1)n1cc(-c2nccc(Nc3cc(N[C@H]4CC[C@@H](NCCF)CC4)c(-c4cccc(F)n4)cn3)n2)cn1 [Example 273]	3.35

Item: CC(F)(F)c1ccc(-c2cnc(Nc3ccnc(-c4cnn(S(=O)(=O)C5CC5)c4)n3)cc2N[C@H]2CC[C@@H](CO)CC2)nc1 [Example 241] Test system: EGFR wildtype (Homo sapiens, UniProt P00533) Read-out: log10(IC50) Value: ?
3.42

Query the reported log10(IC50) for EGFR wildtype (Homo sapiens, UniProt P00533); item: CN(C)CCOc1ccc(-c2cnc(Nc3ccnc(-c4cnn(S(=O)(=O)C5CC5)c4)n3)cc2N[C@H]2CC[C@@](C)(O)CC2)nc1 [Example 208]
2.39

Notebook entry, EGFR wildtype (Homo sapiens, UniProt P00533) assay: log10(IC50) of CN(C)C[C@H]1CC[C@@H](Nc2cc(Nc3ccnc(-c4cnn(S(=O)(=O)C5CC5)c4)n3)ncc2-c2cccc(CC(F)(F)F)n2)CC1 [Example 248] = ?
3.88

Provide value of log10(IC50) for this record tested with EGFR wildtype (Homo sapiens, UniProt P00533): CN(C)CC1CCC(Nc2cc(Nc3ccnc(-c4cnn(S(=O)(=O)C5CC5)c4)n3)ncc2-c2ccc(C(C)(O)C(F)(F)F)cn2)CC1 (stereo not drawn) [Example 234]
2.09
